- measured.on: HIV-1 nucleocapsid protein (NC) (HIV-1 NL4-3, UniProt P12493 378-432)
- procedure.text: ITC
measured.endpoint: pKd
Please report pKd as the negative decimal logarithm of the molar concentration, giving only the number.

Enquiry: Any idea what pKd was measured for UUUUCCCGUCU (ssRNA) [U5UUG (G106U;G108U)] ?
Return: 6.26
